- Assay Text: Organ distribution after i.v. administration
- Assay type: in vivo, mice
- Condition Details: mouse, in vivo, iv; 24 hrs, i.v. 10 mg/kg CPT; read-out: Blood level
Assay Metric: concentration at 24 h (ng/mL)
Numeric answer only, unit ng/mL assumed.

Query: Which concentration at 24 h is reported for this compound? CC[C@@]1(O)C(=O)OCc2c1cc1n(c2=O)Cc2cc3ccccc3nc2-1
Reply: 8

---

- Assay Text: Lipids screened for complexation with CPT (fluorescent microscopy; % bound)
- Assay type: physicochemical
- Condition Details: Table 1; lipid alone with CPT, fluorescent microscopy
- Protocol: In order to prepare LC-CPT (a liposomal preparation containing CPT within spherical lipid vesicles) various individual lipids were screened for complexation with CPT. […] CPT crystals and lipid/CPT complexes of >0.4 microns can be visualized under a fluorescent microscope (since CPT fluoresces due to its rigid ring structure). […] Drug/lipid Complex Preparation. […] Trace quantities of ^14 C labeled cholesterol was added to samples requiring lipid labeling. […]
Assay Metric: Crystals

Study these solved cases before continuing.
CCCCCCCC/C=C\CCCCCCCC(=O)OC[C@H](COP(=O)(O)OCC(O)CO)OC(=O)CCCCCCC/C=C\CCCCCCCC (mixture of isomers) ... no
CCCCCCCC/C=C\CCCCCCCC(=O)OCC(COP(=O)(O)OCCNC(=O)CCCC(=O)O)OC(=O)CCCCCCC/C=C\CCCCCCCC (centres unmarked) ... no
CCCCCCCCCCCCCCCCCC(=O)OC[C@H](COP(=O)([O-])OCC[N+](C)(C)C)OC(=O)CCCCCCCCCCCCCCCCC ... yes
CCCCCC(=O)OC[C@H](COP(=O)([O-])OCC[N+](C)(C)C)OC(=O)CCCCC ... yes
CCCCCCCCCCCCCCCCCC(=O)OC[C@H](COP(=O)([O-])OCC[N+](C)(C)C)OC(=O)CCCCCCCCCCCCC ... yes
CCCCCCCCCCCCCC(=O)OC[C@H](COP(=O)([O-])OCC[N+](C)(C)C)OC(=O)CCCCCCCCCCCCC ... yes

Query: I have this compound here, CCCCCCCC/C=C\CCCCCCCC(=O)O[C@H](COC(=O)CCCCCCCCCCCCCCCCC)COP(=O)([O-])OCC[N+](C)(C)C , and I need its recorded Crystals.
Reply: yes

Query: // query Crystals value for entry CCCCCCCCCCCCCC(=O)OC[C@H](COP(=O)(O)OCC(O)CO)OC(=O)CCCCCCCCCCCCC (mixture of isomers)
Reply: yes

All figures here come from patent US5834012A.
